molecular target: DNA dC->dU-editing enzyme APOBEC-3A (Homo sapiens); test: Dose Response confirmation of small molecule APOBEC3A DNA Deaminase Inhibitors via a fluorescence-based single-stranded DNA deaminase assay. [Related pubchem assays (depositor defined):AID493011, AID493024]; type: functional
Sequence (P31941 whole entry): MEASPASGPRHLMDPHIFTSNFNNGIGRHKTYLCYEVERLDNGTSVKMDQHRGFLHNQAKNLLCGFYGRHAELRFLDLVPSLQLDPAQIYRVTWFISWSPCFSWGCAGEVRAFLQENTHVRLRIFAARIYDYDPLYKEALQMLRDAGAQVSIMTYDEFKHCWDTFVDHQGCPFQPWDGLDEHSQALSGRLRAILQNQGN
Active and inactive are the calls of the source.
METRIC: IC50

The reported DNA dC->dU-editing enzyme APOBEC-3A (Homo sapiens) IC50 of Cc1cc(/C=C2\C(=O)NC(=O)N(c3cccc(F)c3)C2=O)c(C)n1-c1cc(C(=O)O)cc(C(=O)O)c1 is 16.8 µM (active)

The reported DNA dC->dU-editing enzyme APOBEC-3A (Homo sapiens) IC50 of CCOC(=O)c1ccc2c(c1)N(C)C(=O)c1ccccc1S2 is 1.55 µM (active)

The reported DNA dC->dU-editing enzyme APOBEC-3A (Homo sapiens) IC50 of CCN(CC(=O)Nc1c(F)cccc1F)C(=O)c1cccc(-n2cccc2)c1 is 15.9 µM (active)

The reported DNA dC->dU-editing enzyme APOBEC-3A (Homo sapiens) IC50 of O=C(CSc1ccccn1)Nc1cccc2ccccc12 is 8.82 µM (active)

The reported DNA dC->dU-editing enzyme APOBEC-3A (Homo sapiens) IC50 of CCc1n(CC(O)COC2CCCCC2)c2ccccc2[n+]1C (stereo not given) is 1.75 µM (active)

###

target: Calpain-2 catalytic subunit (Sus scrofa); test: m-calpain protease blockers, concentration series – biochemical, fluorogenic peptide substrate, dose response (AID 1420); type: functional
Sequence (P43367 whole entry): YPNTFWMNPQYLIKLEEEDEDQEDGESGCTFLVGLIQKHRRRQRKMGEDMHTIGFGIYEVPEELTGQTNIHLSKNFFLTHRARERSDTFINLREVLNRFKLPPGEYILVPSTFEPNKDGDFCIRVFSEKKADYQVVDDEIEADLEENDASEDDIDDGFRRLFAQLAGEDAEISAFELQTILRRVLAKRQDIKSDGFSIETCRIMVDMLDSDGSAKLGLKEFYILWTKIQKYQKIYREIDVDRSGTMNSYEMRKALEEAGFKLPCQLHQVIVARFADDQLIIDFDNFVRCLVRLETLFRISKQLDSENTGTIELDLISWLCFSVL
METRIC: IC50

IC50 recorded for this compound, CCC(=O)N1CCc2cc(S(=O)(=O)N3CCc4ccccc4C3)ccc21 , is < 0.4 µM (not active)

IC50 recorded for this compound, CCCc1ccc(OC(=O)c2ccc(O)cc2Cl)cc1 , is 3.76 µM (not active)

IC50 recorded for this compound, COc1ccc(N(C(=O)Cn2nnc(-c3ccccc3F)n2)C(C(=O)NCC2CCCO2)c2ccc(Cl)cc2)cc1 (stereo not drawn) , is > 50 µM (not active)

IC50 recorded for this compound, CC(C)C[C@H](NC(=O)[C@@H]1O[C@H]1C(=O)O)C(=O)NCCCCN=C(N)N , is > 50 µM (not active)

IC50 recorded for this compound, Cc1ccc(SCCN=C(S)Nc2cc(C)cc(C)c2)cc1 , is 6.82 µM (not active)

IC50 recorded for this compound, c1ccc(CCNc2ncnc3scc(C4COc5ccccc5O4)c23)cc1 (stereo not drawn) , is 10.4 µM (not active)

IC50 recorded for this compound, Cc1cc(C(=O)N/N=C/c2ccc(OCc3ccccc3)cc2)c(C)o1 , is < 0.4 µM (not active)

IC50 recorded for this compound, O=C(Nc1cccc(-c2nnc(-c3ccco3)o2)c1)c1ccccc1 , is 2.37 µM (not active)

###

Record form. Attribute: IC50. Fill in for each entry.
target: Voltage-gated N-type calcium channel alpha-1B subunit/Amyloid beta A4 precursor protein-binding family A member 1 (Homo sapiens, UniProt Q00975+Q02410); format: protein assay
Sequence (Q00975 whole entry): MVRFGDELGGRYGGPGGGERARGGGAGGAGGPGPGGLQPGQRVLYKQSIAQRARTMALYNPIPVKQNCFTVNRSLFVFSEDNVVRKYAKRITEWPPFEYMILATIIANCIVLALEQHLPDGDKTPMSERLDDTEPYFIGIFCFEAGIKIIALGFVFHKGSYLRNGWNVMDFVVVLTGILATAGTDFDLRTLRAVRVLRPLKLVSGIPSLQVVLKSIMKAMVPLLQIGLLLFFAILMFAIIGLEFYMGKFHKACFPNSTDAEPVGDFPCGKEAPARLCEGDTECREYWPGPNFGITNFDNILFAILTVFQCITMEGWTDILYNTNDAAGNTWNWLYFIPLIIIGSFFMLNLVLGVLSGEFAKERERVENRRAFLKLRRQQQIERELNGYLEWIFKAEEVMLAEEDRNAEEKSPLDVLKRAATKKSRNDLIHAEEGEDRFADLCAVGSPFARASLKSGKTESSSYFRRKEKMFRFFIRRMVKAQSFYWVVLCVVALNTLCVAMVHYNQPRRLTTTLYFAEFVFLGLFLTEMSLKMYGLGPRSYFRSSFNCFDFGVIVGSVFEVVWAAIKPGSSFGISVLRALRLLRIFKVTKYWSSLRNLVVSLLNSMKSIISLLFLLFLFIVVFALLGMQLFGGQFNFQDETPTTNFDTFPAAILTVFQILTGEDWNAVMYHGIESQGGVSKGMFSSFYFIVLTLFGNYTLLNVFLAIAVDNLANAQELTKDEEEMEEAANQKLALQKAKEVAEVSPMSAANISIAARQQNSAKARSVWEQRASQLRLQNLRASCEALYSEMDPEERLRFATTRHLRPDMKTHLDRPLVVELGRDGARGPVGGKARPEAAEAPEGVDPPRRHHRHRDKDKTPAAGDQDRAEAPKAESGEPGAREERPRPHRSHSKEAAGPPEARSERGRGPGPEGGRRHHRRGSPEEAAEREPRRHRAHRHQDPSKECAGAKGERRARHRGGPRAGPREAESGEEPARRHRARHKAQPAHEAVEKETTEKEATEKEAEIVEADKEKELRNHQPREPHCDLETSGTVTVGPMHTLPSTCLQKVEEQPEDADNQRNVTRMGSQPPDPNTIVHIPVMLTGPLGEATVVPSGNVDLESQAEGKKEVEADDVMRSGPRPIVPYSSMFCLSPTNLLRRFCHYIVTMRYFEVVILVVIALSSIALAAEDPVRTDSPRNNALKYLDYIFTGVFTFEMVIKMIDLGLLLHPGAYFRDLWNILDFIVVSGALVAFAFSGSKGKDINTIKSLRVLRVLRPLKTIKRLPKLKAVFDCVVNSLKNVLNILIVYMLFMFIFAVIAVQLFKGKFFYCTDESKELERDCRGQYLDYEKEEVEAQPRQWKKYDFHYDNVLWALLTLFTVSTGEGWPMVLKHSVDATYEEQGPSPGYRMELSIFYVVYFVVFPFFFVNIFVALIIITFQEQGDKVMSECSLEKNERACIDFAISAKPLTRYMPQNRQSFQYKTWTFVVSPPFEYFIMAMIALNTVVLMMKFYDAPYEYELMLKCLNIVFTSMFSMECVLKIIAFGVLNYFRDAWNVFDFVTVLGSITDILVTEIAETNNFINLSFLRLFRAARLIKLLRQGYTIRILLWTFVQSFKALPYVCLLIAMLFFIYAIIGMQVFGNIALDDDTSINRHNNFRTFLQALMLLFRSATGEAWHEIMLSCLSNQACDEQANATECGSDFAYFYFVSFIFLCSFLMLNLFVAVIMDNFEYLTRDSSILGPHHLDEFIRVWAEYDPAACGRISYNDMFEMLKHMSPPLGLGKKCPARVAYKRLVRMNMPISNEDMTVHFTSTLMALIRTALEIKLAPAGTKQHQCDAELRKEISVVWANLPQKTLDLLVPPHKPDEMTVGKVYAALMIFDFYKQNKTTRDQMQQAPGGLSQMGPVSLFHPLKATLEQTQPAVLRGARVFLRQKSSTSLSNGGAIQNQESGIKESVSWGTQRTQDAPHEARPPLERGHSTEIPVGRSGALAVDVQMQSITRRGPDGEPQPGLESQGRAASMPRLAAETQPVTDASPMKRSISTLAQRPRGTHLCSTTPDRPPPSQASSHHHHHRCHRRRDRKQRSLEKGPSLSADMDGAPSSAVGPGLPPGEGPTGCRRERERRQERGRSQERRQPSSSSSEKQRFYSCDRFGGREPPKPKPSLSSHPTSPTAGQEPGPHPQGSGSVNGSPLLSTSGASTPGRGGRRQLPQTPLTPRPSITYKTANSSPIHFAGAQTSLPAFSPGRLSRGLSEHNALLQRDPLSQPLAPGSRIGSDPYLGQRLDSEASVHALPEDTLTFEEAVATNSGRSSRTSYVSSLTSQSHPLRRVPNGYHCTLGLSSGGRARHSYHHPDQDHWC
Sequence (Q02410 whole entry): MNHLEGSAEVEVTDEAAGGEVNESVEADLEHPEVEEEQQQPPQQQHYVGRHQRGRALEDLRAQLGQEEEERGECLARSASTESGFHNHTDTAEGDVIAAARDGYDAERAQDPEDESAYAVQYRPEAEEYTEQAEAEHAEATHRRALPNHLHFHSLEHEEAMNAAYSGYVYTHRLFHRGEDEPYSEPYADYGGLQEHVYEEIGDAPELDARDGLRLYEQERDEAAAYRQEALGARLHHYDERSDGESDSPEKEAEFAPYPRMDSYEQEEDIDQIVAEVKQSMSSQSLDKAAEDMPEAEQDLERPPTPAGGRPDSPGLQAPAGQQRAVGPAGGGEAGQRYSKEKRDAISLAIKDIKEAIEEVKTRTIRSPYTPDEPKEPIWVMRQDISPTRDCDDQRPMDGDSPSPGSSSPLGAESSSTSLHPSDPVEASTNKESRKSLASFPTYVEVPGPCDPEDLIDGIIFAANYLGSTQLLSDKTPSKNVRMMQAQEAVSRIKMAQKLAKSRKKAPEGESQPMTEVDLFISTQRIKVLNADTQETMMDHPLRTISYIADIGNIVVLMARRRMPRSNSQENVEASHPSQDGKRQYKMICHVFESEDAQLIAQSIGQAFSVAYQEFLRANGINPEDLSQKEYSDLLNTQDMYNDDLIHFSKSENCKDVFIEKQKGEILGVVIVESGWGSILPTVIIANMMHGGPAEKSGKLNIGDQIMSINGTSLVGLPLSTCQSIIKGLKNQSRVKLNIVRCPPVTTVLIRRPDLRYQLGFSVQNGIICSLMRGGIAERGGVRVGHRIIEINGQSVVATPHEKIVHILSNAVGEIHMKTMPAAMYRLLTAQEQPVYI
The source made the active and inactive calls.

IC50 recorded for this molecule, CCOc1ccc(C(=O)Nc2ccc(-c3nc4ccccc4[nH]3)cc2)cc1[N+](=O)[O-] , is 12.2 µM (active)

IC50 recorded for this molecule, Cc1cc(C)c2c(=O)n(CC(=O)Nc3cccc(F)c3)sc2n1 , is 8.62 µM (active)

IC50 recorded for this molecule, Cc1ccc2[nH]c(=O)c(C=C3C(=O)NC(=S)NC3=O)cc2c1 , is 9.32 µM (active)

IC50 recorded for this molecule, N#CC1=C(N)N=C(S)C(C(N)=O)C1c1ccc([N+](=O)[O-])cc1 (centres undefined) , is 5.63 µM (active)

Data origin, for the record: ChEMBL document CHEMBL1201862
